Overview of reported inhibition across a group of compounds:
- MEASURED ON: Ribosomal protein S6 kinase alpha-4 (Homo sapiens)
- MEASUREMENT CONDITIONS: at 1 µM
MEASUREMENT KIND: inhibition (%)

# SMILES DATA, MEASURED ON, READING
data = [
    ("FC(F)(F)c1cccc(Nc2nccc(-c3cnn4nc(-c5ccccc5)ccc34)n2)c1", "Ribosomal protein S6 kinase alpha-4 (Homo sapiens)", 0.86),
    ("COc1ccc2cc(-c3c(-c4ccncc4)nc(-c4ccc(S(C)(=O)=O)cc4C)n3C)ccc2c1", "Ribosomal protein S6 kinase alpha-4 (Homo sapiens)", 9.9),
    ("C[C@@H](Oc1cc(-n2cnc3ccc(OC4CCN(C)CC4)cc32)sc1C(N)=O)c1ccccc1Cl", "Ribosomal protein S6 kinase alpha-4 (Homo sapiens)", 5.67),
    ("COc1cc2ncn(-c3cc(OCc4ccccc4C(F)(F)F)c(C(C)=O)s3)c2cc1OC", "Ribosomal protein S6 kinase alpha-4 (Homo sapiens)", 3.01),
]

----------
- MEASURED ON: Ephrin type-A receptor 2 (Homo sapiens)
- MEASUREMENT CONDITIONS: at 1 µM
Overview of reported inhibition across a group of compounds:

# SMILES DATA, inhibition, %
records = [
    ("CN(C)c1ccc2c(c1)/C(=C/Nc1ccc(S(N)(=O)=O)cc1)C(=O)N2", -2.52),
    ("COc1ccc2cc(-c3c(-c4ccncc4)nc(-c4ccc(S(C)(=O)=O)cc4C)n3C)ccc2c1", 0.86),
    ("COc1cc2ncn(-c3cc(OCCc4ccccc4)c(C(N)=O)s3)c2cc1OC", 0.66),
    ("CN(C)CCOc1ccc(-c2cc(-c3ccc4c(c3)CCC4=NO)c(-c3ccncc3)o2)cc1", -3.05),
    ("COc1ccc(-c2ccc3c(NC(=O)C4CC4)n[nH]c3n2)cc1", 0.05),
    ("COc1ccc(C2=C(N3CCc4ccccc43)C(=O)NC2=O)cc1", 0.56),
    ("O=C1NC(=O)C(c2cccc(Cl)c2)=C1Nc1ccc(Cl)c(C(=O)O)c1", 0.86),
    ("Clc1ccc(CNc2nccc(-c3cnn4ncccc34)n2)cc1", 1.02),
    ("Fc1ccc(-c2c(-c3ccncc3)nc3n2CCS3)cc1", -4.53),
    ("O=C1Nc2ccccc2/C1=C/Nc1ccc(-n2cncn2)cc1", 1.91),
    ("Cc1ccc(NC(=O)c2ccoc2)cc1-c1ccc(C(=O)NCC2CC2)cc1", -0.44),
    ("COc1cccc(-n2cnc3c(N/N=C/c4ccncc4)ncnc32)c1", 0.55),
    ("COc1cc(Nc2ncc3c(C)nc(-c4cccc(Oc5ccccc5)c4)n3n2)cc(OC)c1OC", -0.33),
    ("CCN(CC)Cc1ccc(Nc2nccc(-c3cnn4ncccc34)n2)cc1", -5.2),
    ("CS(=O)(=O)CCNCc1ccc(-c2ccc3ncnc(Nc4ccc(OCc5ccccc5)c(Br)c4)c3c2)o1", -2.25),
    ("C/C(Nc1ccc(S(N)(=O)=O)cc1)=C1/C(=O)Nc2ccccc21", -3.36),
    ("O=C(Nc1n[nH]c2nc(-c3ccco3)ccc12)C1CC1", 2.15),
    ("CN(C)CCCNc1nccc(-c2c(-c3ccc(F)cc3)nn3cc(C(F)(F)F)ccc23)n1", -2.04),
    ("Cc1nnc(-c2ccc(C)c(-c3ccc(C(=O)NCc4ccc(Cl)cc4)cc3)c2)o1", -3.32),
    ("NS(=O)(=O)c1ccc(N/N=C2\\C(=O)Nc3ccc(-c4cnco4)cc32)cc1", -4.92),
    ("O=C(Nc1n[nH]c2nc(-c3ccc(O)cc3)c(Br)cc12)C1CC1", 24.2),
]
